Data origin, for the record: patent US12497460B2

# tested on: T1, His9-hMSR1 (human MSR1 extracellular domain) (Homo sapiens, UniProt P21757)
# T1 construct: human MSR1 extracellular domain expressed with a N-terminal nonahistidine tag; His9 (nonahistidine) (N); purchased R&D Systems 2708-MS
# T1 sequence (P21757 77-451 limits assumed): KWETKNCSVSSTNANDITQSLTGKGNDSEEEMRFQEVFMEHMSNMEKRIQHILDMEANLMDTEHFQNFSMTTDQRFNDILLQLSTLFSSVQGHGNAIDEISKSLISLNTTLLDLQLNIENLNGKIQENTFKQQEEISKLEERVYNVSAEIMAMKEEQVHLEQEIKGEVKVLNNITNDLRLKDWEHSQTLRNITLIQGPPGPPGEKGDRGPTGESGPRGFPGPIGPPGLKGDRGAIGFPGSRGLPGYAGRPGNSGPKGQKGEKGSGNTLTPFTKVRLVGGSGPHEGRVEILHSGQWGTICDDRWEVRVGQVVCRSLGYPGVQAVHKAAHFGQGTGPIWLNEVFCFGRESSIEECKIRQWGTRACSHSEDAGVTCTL
# measurement description: Biacore surface plasmon resonance binding kinetics of anti-MSR1 mAbs, antibody-capture format
# details: 25° C.; analyte His9-hMSR1; dissociative half-life; NB = no binding observed
Listed below: t½ values for each entry.
measured parameter: t½ (h)

- H1H21227N-N297D: "The 21227N antibody was also produced as a third version with a N297D mutation" (antibody, V domains shown) VH: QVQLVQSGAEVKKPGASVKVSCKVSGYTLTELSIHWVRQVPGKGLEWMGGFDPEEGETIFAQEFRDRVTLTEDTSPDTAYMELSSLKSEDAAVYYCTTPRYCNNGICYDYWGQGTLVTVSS VL: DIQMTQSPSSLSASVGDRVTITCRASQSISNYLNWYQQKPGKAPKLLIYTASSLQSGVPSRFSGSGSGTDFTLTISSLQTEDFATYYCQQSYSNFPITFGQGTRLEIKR: 5.08
- H1H21231N: "anti-MSR1 antibodies ... (21227N, 21231N, 21234N) were produced with the original human Fcγ portion"; "H1H" = human IgG1 Fc (antibody, V domains shown, human IgG1 Fc, "anti-MSR1 antibodies ; (21227N, 21231N, 21234N) were produced with the original human Fcγ portion"; "H1H" = human IgG1 Fc) VH: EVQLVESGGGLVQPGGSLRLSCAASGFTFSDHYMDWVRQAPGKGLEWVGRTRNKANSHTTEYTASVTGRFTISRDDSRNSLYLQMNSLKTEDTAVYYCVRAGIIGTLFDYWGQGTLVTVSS VL: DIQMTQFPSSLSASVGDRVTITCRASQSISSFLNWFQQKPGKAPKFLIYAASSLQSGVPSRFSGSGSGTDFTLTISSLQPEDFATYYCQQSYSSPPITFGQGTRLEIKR: 19.25
- H1H21227N-N297Q: "modified versions of 21227N (H1H21227N-N297Q and H1H21227N-N297D)"; anti-MSR1 antibody "with a N297Q single point mutation" (antibody, V domains shown) VH: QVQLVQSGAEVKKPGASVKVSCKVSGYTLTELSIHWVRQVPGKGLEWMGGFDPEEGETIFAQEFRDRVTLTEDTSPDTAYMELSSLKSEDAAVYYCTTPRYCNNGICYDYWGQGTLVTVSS VL: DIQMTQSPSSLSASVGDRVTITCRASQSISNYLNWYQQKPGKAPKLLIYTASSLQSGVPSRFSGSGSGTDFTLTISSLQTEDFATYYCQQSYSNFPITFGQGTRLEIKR: 3.93
